target: Serine/threonine-protein kinase 24 (Homo sapiens) (UniProt Q9Y6E0); settings: at 1 µM
Sequence (Q9Y6E0 whole entry, looked up): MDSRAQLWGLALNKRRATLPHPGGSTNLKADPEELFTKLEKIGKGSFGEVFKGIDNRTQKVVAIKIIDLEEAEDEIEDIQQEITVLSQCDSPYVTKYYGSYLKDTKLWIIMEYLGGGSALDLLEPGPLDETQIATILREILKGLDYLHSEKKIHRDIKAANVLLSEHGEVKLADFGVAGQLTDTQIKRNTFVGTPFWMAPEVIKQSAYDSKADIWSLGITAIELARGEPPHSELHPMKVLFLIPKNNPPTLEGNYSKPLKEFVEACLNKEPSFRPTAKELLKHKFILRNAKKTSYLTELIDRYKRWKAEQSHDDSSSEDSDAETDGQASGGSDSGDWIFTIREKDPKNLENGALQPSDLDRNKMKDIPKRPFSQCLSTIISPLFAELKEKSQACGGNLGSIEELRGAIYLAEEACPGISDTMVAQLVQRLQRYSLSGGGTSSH
Readout Kind: residual activity (%)
Numbers only, in %.

Worked cases, answers included:
[
  {
    "Smiles Str": "Ic1cccc(CSc2nnc(-c3ccncc3)o2)c1",
    "Value Reported": 50
  },
  {
    "Smiles Str": "COc1ccc(OC)c2c(=S)c3ccccc3[nH]c12",
    "Value Reported": 80
  },
  {
    "Smiles Str": "CCN(CC)C(=O)c1ccc(Nc2nc(OCC3CCCCC3)c3nc[nH]c3n2)cc1",
    "Value Reported": 63
  },
  {
    "Smiles Str": "N#C/C(=C(\\N)Sc1ccc(N)cc1)c1ccccc1C(F)(F)F",
    "Value Reported": 70
  },
  {
    "Smiles Str": "Cc1cc2ncc(-c3ccccc3)nc2cc1C",
    "Value Reported": 65
  }
]

Continue with the next compound.
Item under review: CC(C)n1cnc2/c(=N/c3cccc(Cl)c3)nc(NCCO)[nH]c21 . Reported residual activity?
62

====

biological target: Ribosomal protein S6 kinase alpha-3 (Homo sapiens) (UniProt P51812); details: at 1 µM
Sequence (P51812 whole entry): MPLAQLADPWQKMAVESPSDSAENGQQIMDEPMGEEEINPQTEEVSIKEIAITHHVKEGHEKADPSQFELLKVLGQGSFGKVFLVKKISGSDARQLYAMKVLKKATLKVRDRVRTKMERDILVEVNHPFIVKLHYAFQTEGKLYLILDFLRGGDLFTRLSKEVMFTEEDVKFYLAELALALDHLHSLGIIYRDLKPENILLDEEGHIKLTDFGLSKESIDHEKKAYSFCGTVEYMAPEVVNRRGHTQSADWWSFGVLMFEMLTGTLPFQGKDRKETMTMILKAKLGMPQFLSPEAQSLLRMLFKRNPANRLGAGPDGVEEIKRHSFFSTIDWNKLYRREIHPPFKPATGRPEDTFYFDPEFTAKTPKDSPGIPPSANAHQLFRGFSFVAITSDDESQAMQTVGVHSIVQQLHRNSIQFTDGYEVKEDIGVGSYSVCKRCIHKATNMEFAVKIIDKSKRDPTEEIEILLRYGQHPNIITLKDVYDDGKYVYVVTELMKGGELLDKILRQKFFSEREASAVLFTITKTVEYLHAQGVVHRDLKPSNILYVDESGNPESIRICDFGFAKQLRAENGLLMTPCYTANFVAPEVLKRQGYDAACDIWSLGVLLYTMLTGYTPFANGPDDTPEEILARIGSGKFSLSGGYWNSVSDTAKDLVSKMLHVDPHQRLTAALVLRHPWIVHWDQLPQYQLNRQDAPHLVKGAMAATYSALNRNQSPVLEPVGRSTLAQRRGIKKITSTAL
Assign residual activity to each entry below.
Give bare numbers, in %.

[
  {
    "Smiles Str": "CC[n+]1c(/C=C/N(C)c2ccccc2)n(-c2ccccc2)c2ccc(-c3nc4ccccc4s3)cc21",
    "residual activity / %": 94
  },
  {
    "Smiles Str": "Nc1ccc2ncnc(NCCc3ccc(Oc4ccccc4)cc3)c2c1",
    "residual activity / %": 49
  },
  {
    "Smiles Str": "Nc1nc(Nc2ccc(S(N)(=O)=O)cc2)nn1C(=S)Nc1c(F)cccc1F",
    "residual activity / %": 0
  },
  {
    "Smiles Str": "Cn1nc2c3c(cccc31)C(=O)c1ccccc1-2",
    "residual activity / %": 58
  }
]

Query (molecule): Oc1ccc(-c2nc(-c3ccc(F)cc3)c(-c3ccncc3)[nH]2)cc1 ; field requested: residual activity
55

====

biological target: Insulin receptor-related protein (Homo sapiens); conditions: at 10 µM
For each entry below, report its residual activity value.
Numbers only, in %.

[
  {
    "Smiles Str": "O=C(Nc1cccc(Nc2cc(Nc3cccc(C(F)(F)F)c3)ncn2)c1)C1CC1",
    "Readout Kind": "residual activity",
    "Unit Spec": "%",
    "Value Reported": 63
  },
  {
    "Smiles Str": "NC(=O)c1ccc2[nH]c(-c3ccc(Oc4ccc(Cl)cc4)cc3)nc2c1",
    "Readout Kind": "residual activity",
    "Unit Spec": "%",
    "Value Reported": 101
  },
  {
    "Smiles Str": "O=Nc1c(-c2c(O)[nH]c3ccccc23)[nH]c2ccccc12",
    "Readout Kind": "residual activity",
    "Unit Spec": "%",
    "Value Reported": 1
  },
  {
    "Smiles Str": "Cn1cnc2cc3c(Nc4cccc(Br)c4)ncnc3cc21",
    "Readout Kind": "residual activity",
    "Unit Spec": "%",
    "Value Reported": 78
  }
]

# batch: return residual activity for each of the 2 compounds below
1. C[C@@H](N)[C@H]1CC[C@H](C(=O)Nc2ccncc2)CC1
2. COc1cc2ncnc(Nc3ccc(Oc4ccccc4)cc3)c2cc1OC

101
81

====

target: Cyclin-dependent kinase 7/ cyclin H (Homo sapiens) (UniProt P51946+P50613); conditions: at 1 µM
Heads up, the class ranges for residual activity are b0 = under 80%, b1 = from 80% up to 90%, b2 = 90% and over

[
  {
    "Smiles Str": "Oc1c2ccccc2c2c3c(cccc13)N=N2",
    "Answer Label": "b0"
  },
  {
    "Smiles Str": "c1ccc(-c2n[nH]c3c2oc2ccccc23)cc1",
    "Answer Label": "b1"
  },
  {
    "Smiles Str": "CC(C)n1cnc2/c(=N/c3cccc(Cl)c3)nc(NCCO)[nH]c21",
    "Answer Label": "b0"
  },
  {
    "Smiles Str": "COc1cc2ncc(-c3ccccc3)nc2cc1OC",
    "Answer Label": "b2"
  },
  {
    "Smiles Str": "c1ccc(-c2n[nH]cc2-c2ccnc3ccccc23)nc1",
    "Answer Label": "b2"
  }
]

# bin lookup: classify CC(C)n1cnc2c(NCc3ccccc3)nc(NCCCO)nc21 by its residual activity
b0

Returns: class label. Input: COc1cc2ncnc(Nc3ccc(Oc4ccccc4)cc3)c2cc1OC
b2

Hello team, could you let me know which band the following compound falls into: C[C@@H](N)[C@H]1CC[C@H](C(=O)Nc2ccncc2)CC1
b2

Record Nc1ccc2ncnc(NCCc3ccc(Oc4ccccc4)cc3)c2c1 — which class?
b2

Dear colleague, I would appreciate it if you could identify the bin for CCN(CC)C(=O)c1ccc(Nc2nc(OCC3CCCCC3)c3nc[nH]c3n2)cc1 and reply at your convenience.
b0

====

Hi there, I'd appreciate the recorded residual activity for every entry that follows.
target: Tyrosine-protein kinase HCK (Homo sapiens); details: at 10 µM
Give bare numbers, in %.

[
  {
    "Smiles Str": "Ic1cccc(CSc2nnc(-c3ccncc3)o2)c1",
    "Target": "Tyrosine-protein kinase HCK (Homo sapiens)",
    "Value Reported": 56
  }
]

// batch mode: one residual activity value per listed entry
1. CO[C@H]1[C@@H](OC)C[C@H](C)[C@@H](OC)C2=CC(=O)C=C(NC(=O)/C(C)=C/C=C/[C@H](OC)[C@@H](OC(N)=O)/C(C)=C/[C@@H]1C)C2=O
2. COc1ccc(S(=O)(=O)N(CCO)c2ccccc2CN(C)C/C=C/c2ccc(Cl)cc2)cc1
3. CCC(=O)Nc1ccc2ncnc(Nc3cccc(Br)c3)c2c1
4. O=C1NC(=O)c2cc(Nc3ccc(F)cc3)c(Nc3ccc(F)cc3)cc21

[76, 45, 45, 21]

====

molecular target: Tyrosine-protein kinase HCK (Homo sapiens) (UniProt P08631); conditions: at 10 µM
Sequence (P08631 2-526 limits assumed): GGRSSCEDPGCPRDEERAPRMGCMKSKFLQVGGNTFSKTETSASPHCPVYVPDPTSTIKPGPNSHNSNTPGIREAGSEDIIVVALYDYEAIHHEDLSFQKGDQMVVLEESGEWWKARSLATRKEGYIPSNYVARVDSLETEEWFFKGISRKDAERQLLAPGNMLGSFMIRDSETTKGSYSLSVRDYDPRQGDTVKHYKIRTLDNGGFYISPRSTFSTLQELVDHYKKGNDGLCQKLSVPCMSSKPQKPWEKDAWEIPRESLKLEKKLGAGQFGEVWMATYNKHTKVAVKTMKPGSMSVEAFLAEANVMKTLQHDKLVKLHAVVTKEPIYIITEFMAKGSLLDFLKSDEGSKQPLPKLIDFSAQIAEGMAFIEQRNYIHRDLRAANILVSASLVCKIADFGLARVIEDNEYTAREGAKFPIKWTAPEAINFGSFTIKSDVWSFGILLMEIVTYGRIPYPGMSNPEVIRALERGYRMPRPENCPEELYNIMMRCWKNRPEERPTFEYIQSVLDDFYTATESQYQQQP
Could you mark each record YES if its residual activity falls strictly under 50%, and NO if it equals or exceeds it?

Please review the following examples before continuing.
[
  {
    "Molecule": "O=C1Nc2ccccc2/C1=C1/Nc2ccccc2/C1=N\\OCCC(O)CO (stereo not given)",
    "Target": "Tyrosine-protein kinase HCK (Homo sapiens) (UniProt P08631)",
    "Answer Label": "YES"
  },
  {
    "Molecule": "Oc1c2ccccc2c2c3c(cccc13)N=N2",
    "Target": "Tyrosine-protein kinase HCK (Homo sapiens) (UniProt P08631)",
    "Answer Label": "YES"
  }
]

Say whether its residual activity is strictly beneath 50%. Entry: O=C1Nc2ccc(Br)cc2/C1=C\c1cc2c([nH]1)CCCC2
NO

Please check: residual activity for CCN(CC)C(=O)c1ccc(Nc2nc(OCC3CCCCC3)c3nc[nH]c3n2)cc1 , strictly under 50% or not?
YES

Input COc1cc2ncnc(Nc3ccc(NC(=O)c4ccccc4)cc3)c2cc1OC ; condition: residual activity strictly below 50%. Does it hold?
YES

Record Cn1cc(/C=C2\C(=O)Nc3ccc(S(N)(=O)=O)cc32)c2ccccc21 : is its residual activity strictly below 50%?
YES

API: query returns whether the molecule falls strictly under 50% in residual activity. Query: CO[C@@H]1[C@H](N(C)C(=O)c2ccccc2)C[C@H]2O[C@]1(C)n1c3ccccc3c3c4c(c5c6ccccc6n2c5c31)C(=O)NC4
YES

Input COc1cccc(-c2cc(=O)c3ccccc3o2)c1N ; condition: residual activity strictly below 50%. Does it hold?
NO

Field: below-cutoff. Rule: recorded residual activity strictly less than 50%. Subject: c1ccc(-c2n[nH]cc2-c2ccnc3ccccc23)nc1
NO

Criterion: residual activity strictly below 50%. Is it met by O=C(O)c1ccc2c3c1cccc3c(=O)n1c3ccccc3nc21 ?
NO

Lab log: compare recorded residual activity with 50%; is it strictly lower for Cc1ccc(NC2=CC(=O)c3sc(C)nc3C2=O)cc1 ?
NO

# check: residual activity < 50% for Oc1ccc(Nc2nc(-c3ccc(Cl)cc3)cs2)cc1
NO

Here's an entry: O=C1NC(=O)/C(=C/c2ccc3c(c2)OC(F)(F)O3)S1 . Is its residual activity below 50%?
YES

Please let me know if C[C@@H](N)[C@H]1CC[C@H](C(=O)Nc2ccncc2)CC1 shows residual activity below 50%.
NO

====

target: Ephrin type-A receptor 5 (Homo sapiens); details: at 1 µM
Given measured residual activity, output yes (1) if it is greater than or equal to 70% and no (0) if not.

[
  {
    "Smiles Str": "c1ccc(-c2n[nH]cc2-c2ccnc3ccccc23)nc1",
    "Answer Label": "yes (1)"
  }
]

Dear colleague, could you confirm whether COc1cc2ncnc(Nc3ccc(O)c(Br)c3)c2cc1OC has residual activity at or above 70%?
yes (1)

Hi team, for O=C1Nc2ccc(Br)cc2/C1=C\c1cc2c([nH]1)CCCC2 , is the recorded residual activity at or above 70%?
yes (1)

Reported residual activity at or above 70%? N#Cc1cnc2cnc(NCc3cccnc3)cc2c1Nc1ccc(F)c(Cl)c1
no (0)

Record Oc1c2ccccc2c2c3c(cccc13)N=N2 ; criterion: residual activity no lower than 70%. Met?
yes (1)

Does residual activity meet or surpass 70% for CCN(CC)CCCCN1c2ccccc2Oc2ccc(Cl)cc21 ?
yes (1)

Threshold query (residual activity >= 70%) on O=C1NC(=O)/C(=C\c2ccc3nccnc3c2)S1
yes (1)

Identify whether the reported residual activity of the following compound is 70% or greater: O=C1Nc2cc(Br)ccc2/C1=C1/Nc2ccccc2/C1=N\O
no (0)

Form field: residual activity at least 70%? Entry: CO[C@H]1C[C@@H]2CC[C@@H](C)[C@@](O)(O2)C(=O)C(=O)N2CCCC[C@H]2C(=O)O[C@H]([C@H](C)C[C@@H]2CC[C@@H](O)[C@H](OC)C2)CC(=O)[C@H](C)/C=C(\C)[C@@H](O)[C@@H](OC)C(=O)[C@H](C)C[C@H](C)/C=C/C=C/C=C/1C
yes (1)
